Tested on: A549
Assay: NCI tumour cell line growth inhibition, 48 h
Calls of active or inactive are those of the source. Rule as the data show it: active = GI50 up to about 1.1 µM and inactive = higher.
Just give me one of these, please: active, inactive

Worked examples follow.
Cc1c(C)c(S(=O)(=O)N(CCCCN)OCCCN)c(C)c2c1OC(C)(C)CC2; inactive
O=C(/C=C/c1ccccc1)C[C@@H](O)C[C@@H]1CC=CC(=O)O1; inactive

Qu. # outcome recorded in this test, key = `Cc1coc2c1C(=O)C(=O)c1ccccc1-2`
Ans. inactive

Qu. Could you please tell me the result logged for `CNC(=O)Oc1ccc(-c2cn3cc(OC(=O)NC)ccc3n2)cc1` in this assay?
Ans. inactive

Qu. Fill in: this test's call for `Cc1nc(N)c(N2CCNCC2)c(O)n1` is ___
Ans. inactive

Qu. Short answer needed: outcome of this test for O=C(CC(C(=O)c1ccsc1)c1ccccc1)c1ccccc1 (centres undefined) ?
Ans. inactive

Qu. I'd appreciate the recorded outcome for `CSc1c(C#N)c2n(c3ccccc13)c1ccccc1[n+]2C` from this test.
Ans. inactive

Qu. Record request — test call for `CC(=O)Nc1nnc(S(C)(=O)=O)s1`
Ans. inactive

---

Tested on: Malme-3M
Test: NCI tumour cell line growth inhibition, 48 h
Calls of active or inactive are those of the source. No stated cut-off is given here; in the data, active = GI50 up to about 1.1 µM and inactive = higher.
Listed compounds paired with reported GI50

Look over these answered cases.
O=C(NC(Cc1ccccc1)C(=O)CCl)OCc1ccccc1 (stereo not given); 11.4 µM (inactive)
COc1ccc(C2C(Cl)C(=O)N2NC(=O)Cc2ccccc2)cc1OC (stereo not given); > 100 µM (inactive)
C=CC[C@@]1(C(=O)OC)[C@H](Sc2ccccc2)C1(C)C; 29.4 µM (inactive)
O=C(O)c1c2c(cc3c1CC1(Cc4cc5c(cc4C1=O)CCC5)C3)CCC2 (stereo not given); > 100 µM (inactive)
COC(=O)C1=CC(=O)[C@@H]2CCCC[C@H]12; > 100 µM (inactive)

GI50 recorded for this compound, `O=[N+]([O-])c1ccc(S(=O)(=O)Cc2ccccc2)c2nonc12` , is 17.9 µM (inactive)

Lab book: GI50 of `O=C(c1ccc([N+](=O)[O-])cc1[N+](=O)[O-])N(/N=C/C=C/c1ccccc1)c1nnc(-c2ccccc2)c(-c2ccccc2)n1` noted as 43.8 µM (inactive)

Please fill in: GI50 reported for Nc1nc(NCC2(CO)CC(CCc3ccccc3)C2)cc(=O)[nH]1 (stereo not given) = > 100 µM (inactive)

GI50 measured on `Nc1nc(SC/C=C/c2ccccc2)c2[nH]cnc2n1` = > 100 µM (inactive)

GI50 recorded for this compound, `COc1ccc(C(=O)Cc2cc(OC)ccc2OC)cc1` , is > 100 µM (inactive)

---

Recorded GI50 values for a group of compounds are listed next.
System: M14
Experiment: NCI tumour cell line growth inhibition, 48 h
The source made the active and inactive calls. Rule as the data show it: active = GI50 up to about 1.1 µM and inactive = higher.

O=C1CSC2(CC(/C=C/c3ccccc3)=NN2c2cccc(S(=O)(=O)O)c2)N1c1nc2ccccc2s1 (stereo not given); 41.3 µM (inactive)

// recorded GI50 for `Cn1c(-c2ccccc2)cc(-c2cccs2)c1-c1ccsc1` : > 100 µM (inactive)

Notebook: `Cc1nccn1S(=O)(=O)c1ccc(Br)cc1Br` , GI50 read as 16.9 µM (inactive)

Data point: `NS(=O)(=O)c1ccc(/N=N/c2c(O)c(C(=O)O)cc3ccccc23)cc1` ; GI50 = > 75.9 µM (inactive)

Please fill in: GI50 reported for `Cc1ccccc1C(=O)c1ccccc1O` = > 100 µM (inactive)

The recorded GI50 for `c1ccc(-c2ccnc3c2ccc2c(-c4ccccc4)ccnc23)cc1` is 3.37 µM (inactive)

The recorded GI50 for `CCOC(=O)C(Cc1ccc2c(c1)CCC2)(Cc1ccc2c(c1)CCC2)C(=O)OCC` is 96.2 µM (inactive)

The compound `Oc1ccc(-c2nc3ccc(F)cc3s2)cc1` showed GI50 equal to 20.4 µM (inactive)

Sure, the documented GI50 for C=C1CCC2[C@](C)(CCC[C@]2(C)C(=O)O)[C@@H]1CCc1ccoc1 (stereo not given in full) is 41.1 µM (inactive)

---

Tested on: SW-620
Experiment: NCI tumour cell line growth inhibition, 48 h
Active and inactive are the calls of the source. Rule as the data show it: active = GI50 up to about 1.1 µM and inactive = higher.
Hi there, use one of these labels in your reply, thanks! Yes (active), No (inactive)

Qu. Hi, do you know how `COC(=O)C1=CC(=O)[C@@H]2CCCC[C@H]12` came out in this test?
Ans. No

Qu. Tell me the assay call for `Cc1ccc2c(O)cc(-c3cccs3)nc2n1` please.
Ans. No

Qu. Dear all, I need the recorded test outcome for `CCOc1cccc(-c2cc(O)c3cc4c(cc3n2)OCO4)c1` , thank you.
Ans. Yes

Qu. Hi, sorry to bother you, what did the test record for O=C1C=C(Br)C(=O)C12CCc1ccccc12 (stereo unspecified) ?
Ans. No

Qu. Which outcome did this test record for the molecule O=C1CC2C(=O)c3ccccc3CC2c2ccccc21 (stereo unspecified) ?
Ans. No

Qu. Each molecule tested received a call. Report the one for `COc1ccc(-c2onc(-c3c(C)cc(C)cc3C)c2C2=NCCN2)cc1` .
Ans. No

---

System: HOP-62
Experiment: NCI tumour cell line growth inhibition, 48 h
The source made the active and inactive calls. Rule as the data show it: active = GI50 up to about 1.1 µM and inactive = higher.
GI50 values by entry

c1ccc(C(c2cccc3c2ccc2ccccc23)C(c2ccccc2)c2cccc3c2ccc2ccccc23)cc1 (stereo not given); > 100 µM (inactive)
Cc1nnc(N)s/c1=N/O; > 100 µM (inactive)
O=[N+]([O-])c1cccc(Cl)c1Oc1ccc(S(=O)(=O)N/C(=N\O)Nc2ccc(Cl)cc2)cc1; 20.2 µM (inactive)
O=C(O)c1[nH]c2c([N+](=O)[O-])cc([N+](=O)[O-])cc2c1C(=O)O; > 100 µM (inactive)

So, `CCOC(=O)c1ccc(Nc2nc3ccccc3n3cccc23)cc1` ? Its GI50 was 25.7 µM (inactive)

---

# reported GI50; entries follow
Tested on: LOX IMVI
Assay: NCI tumour cell line growth inhibition, 48 h
The source made the active and inactive calls. No stated cut-off is given here; in the data, active = GI50 up to about 1.1 µM and inactive = higher.

CCCCCCCCCCCCCCCCOCC(CN(C)CCN(C)C)OCCCCCCCCCCCCCCCC (stereo unspecified); > 100 µM (inactive)
Clc1ccc(-c2cc(-c3nc4ccccc4[nH]3)no2)cc1; 19.5 µM (inactive)
O=C1C(=O)N(c2ccc(Cl)c(Cl)c2)C(=O)C(=O)C1c1nc2ccccc2o1; > 100 µM (inactive)

GI50 in this record for `CCOC(=O)C(=CNC(=S)c1ccncc1)C(=O)OCC` : > 100 µM (inactive)

The recorded GI50 for entry CCOP(=O)(OCC)C(Nc1ccc(Cl)cc1)c1ccc(F)cc1 (stereo unspecified) equals 15.7 µM (inactive)

# GI50 of `COc1ccc2c(c1)/C(=C\c1c(-c3ccccc3)nc3n1CCS3)C(=O)N2` = 7.64 µM (inactive)

GI50 reported for this compound CC1CCCN(CP(=O)(c2ccccc2)c2ccccc2)C1 (stereo unspecified) : > 100 µM (inactive)

response.value for O=NN(Cc1ccc(Cl)cc1)C(C(=O)O)c1ccccc1 (stereo unspecified) (field: GI50) = > 100 µM (inactive)

Lookup result for OCC1OC(NC(=S)NCSCCC(F)(F)C(F)(F)C(F)(F)C(F)(F)C(F)(F)C(F)(F)F)C(O)C(O)C1O (stereo unspecified) ; measured GI50: 34.4 µM (inactive)

# compound NC(CC(=O)OCc1ccccc1)C(=O)OCc1ccccc1 (stereo unspecified) ; its GI50 = > 100 µM (inactive)

response.value for `OC(Cn1cncn1)(Cn1cncn1)c1ccc(Cl)cc1Cl` (field: GI50) = > 100 µM (inactive)

---

Tested on: OVCAR-5
Experiment: NCI tumour cell line growth inhibition, 48 h
Calls of active or inactive are those of the source. Cut-off read from the data, not from the text of the source: active = GI50 up to about 1.1 µM and inactive = higher.
One label from this list, please: 1 = active, 0 = inactive

Study these solved cases before continuing.
O=C(c1ccc(Cl)cc1)c1ccc(OCCCOc2ccc(C(=O)c3ccc(Cl)cc3)cc2Cl)c(Cl)c1; 0
O=C(c1ccc([N+](=O)[O-])cc1[N+](=O)[O-])N(/N=C/C=C/c1ccccc1)c1nnc(-c2ccccc2)c(-c2ccccc2)n1; 0
C#CCOCn1cnc2c(N)ncnc21; 0

Qu. Identify the outcome logged in this assay for the compound shown: COC(=O)C1=C(O)C(C(=O)OC)[C@@]2(O)[C@@H](C(=O)OC)[C@H](C)[C@@H](C)[C@@H]1[C@@H]2C(=O)OC (some centres not stated)
Ans. 0

Qu. Any idea what this test logged for `Nc1nc(O)c2c(n1)NCN(c1ccc(S(N)(=O)=O)cc1)C2` ?
Ans. 0

Qu. What outcome does the record of this test show for CCCCCCCCCCCCOC1C(COCCN2CCCCC2)OC2OC(C)(C)OC21 (configuration not stated) ?
Ans. 0

Qu. Could you please tell me the result logged for CC(=O)N(CCc1ccccc1)C(C#N)c1ccccc1 (configuration not stated) in this assay?
Ans. 0

Qu. Tell me the assay call for `NS(=O)(=O)c1ccc(Nc2c3ccccc3nc3c(C(=O)N4CCN(CCO)CC4)cccc23)cc1` please.
Ans. 0
